- MEASUREMENT_CONTEXT: 298.4 K; Liquid; Transpiration method
MEASUREMENT_TYPE: vapor or sublimation pressure (kPa)

Field: example entries. Status: answers known.
{"COMPOUND": "CCCCCOC=O [pentyl methanoate]", "vapor or sublimation pressure (kPa)": 1.161}
{"COMPOUND": "CCCCCCCCOC=O [octyl methanoate]", "vapor or sublimation pressure (kPa)": 0.04462}
{"COMPOUND": "CCCCCOC(=O)CC [pentyl propanoate]", "vapor or sublimation pressure (kPa)": 0.1984}
{"COMPOUND": "CCCCCOC(C)=O [pentyl ethanoate]", "vapor or sublimation pressure (kPa)": 0.4754}

I. CCCCCCCCOC(=O)CC [octyl propanoate]
II. CCCCCCOC(=O)CC [hexyl propanoate]
Query: Given the listed items, does I or II have the lesser reported vapor or sublimation pressure? Identify your pick by its label.
Response: I
